Molecular target: EGFR L858R (Homo sapiens, UniProt P00533, L858R)
Construct: purchased SignalChem E10-122BG
Sequence (P00533 25-1210 L858R): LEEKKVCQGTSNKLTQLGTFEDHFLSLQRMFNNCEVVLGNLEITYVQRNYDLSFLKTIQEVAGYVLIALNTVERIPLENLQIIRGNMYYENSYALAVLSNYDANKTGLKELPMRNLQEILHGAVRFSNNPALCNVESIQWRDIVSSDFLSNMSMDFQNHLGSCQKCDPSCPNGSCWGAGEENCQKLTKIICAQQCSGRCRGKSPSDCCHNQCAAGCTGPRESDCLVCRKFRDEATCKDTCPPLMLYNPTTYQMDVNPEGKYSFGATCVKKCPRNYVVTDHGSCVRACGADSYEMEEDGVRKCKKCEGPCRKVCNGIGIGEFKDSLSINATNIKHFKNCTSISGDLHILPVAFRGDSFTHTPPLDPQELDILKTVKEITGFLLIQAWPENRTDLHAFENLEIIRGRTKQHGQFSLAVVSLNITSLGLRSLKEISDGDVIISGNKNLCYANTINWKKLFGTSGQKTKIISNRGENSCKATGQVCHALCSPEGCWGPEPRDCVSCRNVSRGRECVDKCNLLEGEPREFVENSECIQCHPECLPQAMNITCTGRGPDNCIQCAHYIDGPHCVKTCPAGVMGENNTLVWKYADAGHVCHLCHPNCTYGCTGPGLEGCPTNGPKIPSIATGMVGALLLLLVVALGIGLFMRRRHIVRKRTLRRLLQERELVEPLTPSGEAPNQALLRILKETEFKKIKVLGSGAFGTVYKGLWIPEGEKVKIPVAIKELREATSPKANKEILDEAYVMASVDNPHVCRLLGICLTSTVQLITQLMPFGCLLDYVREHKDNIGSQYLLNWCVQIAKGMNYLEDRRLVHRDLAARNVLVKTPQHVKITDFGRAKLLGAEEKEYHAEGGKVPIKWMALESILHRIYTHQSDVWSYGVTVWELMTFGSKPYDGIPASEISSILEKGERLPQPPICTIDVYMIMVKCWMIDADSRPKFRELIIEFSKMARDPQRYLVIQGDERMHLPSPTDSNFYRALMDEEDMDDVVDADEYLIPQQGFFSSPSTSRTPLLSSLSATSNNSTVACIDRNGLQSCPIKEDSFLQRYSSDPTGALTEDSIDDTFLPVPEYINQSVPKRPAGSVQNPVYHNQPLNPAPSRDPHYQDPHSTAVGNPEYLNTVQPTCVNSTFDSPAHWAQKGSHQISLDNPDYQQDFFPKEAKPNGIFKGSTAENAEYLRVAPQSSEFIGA
Assay: Biochemical EGFR inhibition assay (Caliper mobility shift), EGFR L858R
Conditions: read-out: Enz EGFR_L858R IC50
quantityName: IC50

Here is how some molecules turned out for IC50.
C[C@H](CN(C)C)Oc1cc(-c2cnn(C)c2)cc2c1c(Nc1ccc3ncccc3c1F)nc[n+]2[O-] (single isomer, unassigned): < 10 nM
[2H]c1ccc2cc(Nc3ncnc4cc(-c5cnn(C)c5)cc(O[C@H](C)CN(C)C)c34)ccc2n1: < 10 nM
CCn1cc(-c2cc(OC3CCN(C)CC3)c3c(Nc4ccc5ncccc5c4F)ncnc3c2)c(OC)n1: 10.1 to 50 nM
CC(Oc1cc(-c2cnn(C)c2)cc2ncnc(Nc3ccc4ncccc4c3F)c12)C1(N(C)C)COC1 (stereo not shown): < 10 nM
C[C@H](CN(C)C)Oc1cc(N2CCC(C)(O)CC2)cc2ncnc(Nc3ccc4ncccc4c3F)c12: 10.1 to 50 nM
CCOc1cc2ncnc(Nc3ccc4ncccc4c3F)c2c(O[C@H](C)CN(C)C)n1: > 50.1 nM

Turning to the following molecule.
Find the recorded IC50 belonging to C[C@H](CN(C)C)Oc1cc(-c2cnn(C)c2)cc2ncnc(Nc3ccc4ncc(F)cc4c3)c12 and report it.
< 10 nM

// data source = patent US12662465B2
